Field: pEC50. Provide a value for each of the binders that follow.
- TESTED_ON: T1, human CLDN18.2 (human)
- T1 construct: The construct in the CLDN18.2-overexpressing BxPC-3 and NCI-N87 lines is not described; KATOIII and NUGC-4 express CLDN18.2 naturally; All are written here as this one molecule; also called Claudin 18.2; tight junction protein 18.2
- ASSAY_EXPLANATION: flow cytometry, CLDN18.2-overexpressing NCI-N87 cells
Recall that pEC50 is obtained by taking minus log10 of the concentration measured in molar.

Exercise: Please report the measured pEC50 for hz28G3-1.1-DDDXd (with DAR of 7.4) (antibody, human IgG1, kappa, DAR 7.4, V domains shown, linker-payload MC-GGFG-DDDXd (compound H) conjugated to cysteines of the reduced inter-chain disulfide bonds; positions not given; linker-payload MC-GGFG-DDDXd (compound H) conjugated to cysteines of the reduced inter-chain disulfide bonds; positions not given; DAR 7.4 for the whole molecule, also called anti-CLDN18.2 antibody-drug conjugate) VH: QVQLVQSGAEVKKPGASVKVSCKTSGYSFTDYLMLWVRQAPGQGLEWMGNINPYYGRTTYALKFKGRVTMTVDRSTSTVYMELSSLRSEDTAVYYCARDGYSLRNAMDYWGQGTLVTVSS VL: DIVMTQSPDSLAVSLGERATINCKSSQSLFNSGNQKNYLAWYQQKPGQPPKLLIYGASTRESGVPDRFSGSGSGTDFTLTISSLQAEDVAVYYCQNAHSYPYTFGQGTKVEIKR
Key: 8.93

Exercise: Please report the measured pEC50 for hz28G3-1.3-DDDXd (with DAR of 7.6) (antibody, human IgG1, kappa, DAR 7.6, V domains shown, linker-payload MC-GGFG-DDDXd (compound H) conjugated to cysteines of the reduced inter-chain disulfide bonds; positions not given; linker-payload MC-GGFG-DDDXd (compound H) conjugated to cysteines of the reduced inter-chain disulfide bonds; positions not given; DAR 7.6 for the whole molecule, also called anti-CLDN18.2 antibody-drug conjugate) VH: QVQLVQSGAEVKKPGASVKVSCKTSGYSFTDYLMLWVRQAHGQSLEWMGNINPYYGRTTYALKFKGRVTMTVDRSTSTVYMELSSLRSEDTAVYYCARDGYSLRNAMDYWGQGTLVTVSS VL: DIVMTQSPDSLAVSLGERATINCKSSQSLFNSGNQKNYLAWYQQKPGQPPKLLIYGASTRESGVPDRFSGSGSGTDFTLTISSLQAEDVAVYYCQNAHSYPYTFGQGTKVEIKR
Key: 8.99

Exercise: Please report the measured pEC50 for humanized antibody hz28G3-1.3 (antibody, human IgG1, kappa, V domains shown, Naked humanized anti-CLDN18.2 antibody, human IgG1 / kappa, expressed in CHO cells) VH: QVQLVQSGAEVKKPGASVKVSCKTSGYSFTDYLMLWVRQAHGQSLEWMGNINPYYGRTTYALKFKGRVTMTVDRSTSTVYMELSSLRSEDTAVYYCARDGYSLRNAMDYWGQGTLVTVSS VL: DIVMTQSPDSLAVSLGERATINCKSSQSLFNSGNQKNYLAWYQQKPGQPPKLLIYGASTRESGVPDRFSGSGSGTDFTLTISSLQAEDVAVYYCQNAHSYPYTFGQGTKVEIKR
Key: 8.56

Exercise: Please report the measured pEC50 for humanized antibody hz28G3-1.1 (antibody, human IgG1, kappa, V domains shown, Naked humanized anti-CLDN18.2 antibody, human IgG1 / kappa, expressed in CHO cells) VH: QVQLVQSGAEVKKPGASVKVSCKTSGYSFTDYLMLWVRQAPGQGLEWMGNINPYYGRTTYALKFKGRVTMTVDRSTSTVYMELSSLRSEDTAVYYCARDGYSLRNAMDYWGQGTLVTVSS VL: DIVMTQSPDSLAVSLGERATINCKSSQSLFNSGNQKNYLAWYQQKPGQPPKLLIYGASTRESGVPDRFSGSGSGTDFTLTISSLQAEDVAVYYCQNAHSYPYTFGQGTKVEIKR
Key: 8.58
